The measured values listed here are drawn from the nanobody polyreactivity screen of Harvey et al. (2022).

experimental.protocol: yeast display, Sf9 membrane polyspecificity reagent, FACS + sequencing; frameworks hold sequencing errors
experimental.endpoint: polyreactivity (PSR sort gate)

>>> result("QVQLVESGGGLVQAGGSLRLSCAASGLIFTYYAMGWYRQAPGKERELVAGISSGTNTNYADSVKGRFTISRDNAKNTVYLQMNSLKPEDTAVYYCAKTRGYQFVAYGYWGQGTQVTVSS")
"low polyreactivity"
>>> result("QGQLVESGGGLVQAGGSLRLSCAASGRTFYRNAMGWYRQAPGKEREFVAAITSIGGATYYADSVKGRFTISRDNAKNTVDLQMNSLKPEDTAVYYCAAKGFRYPEYDYWGQGTQVTVSS")
"low polyreactivity"
>>> result("QVQLVESGGGLVQAGGSLRLSCAASGSIFGGYTMGWYRQAPGKERELVAAISRRGGNTYYADSVKGRFTISRDNAKNTVYLQMNSLKPEDTAVYYCNARPTTYNYDYWGQGTQVTVSS")
"high polyreactivity"
>>> result("QVQLVESGGGLVQAGGSLRLSCAASGSIFRTNAMGWYRQAPGKERELVASISRRGGSTYYADSVKGRFTISRDNAKNTVYLQMNSLKPEDTAVYYCAAVGYYSNTLHPWWDMYYWGQGTQVTVSS")
"high polyreactivity"
>>> result("QVQLVESGGGLVQAGGSLRLSCAASGSTFAYYAMGWYRQAPGKERELVAAISWSGGSTYYADSVKGRFTISRDNAKNTVYLQLNSLKPEDTAVYYCAAGVPSTFQYSYWDYNYWGQGTQVTVSS")
"low polyreactivity"

* * *

experimental.protocol: yeast display, Sf9 membrane polyspecificity reagent, FACS + sequencing; frameworks hold sequencing errors
experimental.endpoint: polyreactivity (PSR sort gate)

>>> result("QVQLVESGGGLVQAGGSLRLSCAASGSIFTPYAMGRYRQAPGKERELVAAISRSGGRTYYADSVKGRFTISRDNAKNTVYLQMNSLKPEDTAVYYCNAGAGQRVSGHSFEYWGQGTQVTVSS")
"high polyreactivity"
>>> result("QVQLVESGGGLVQAGGSLRLSCAASGITFDYYAMGWYRQAPGKERELVAAISWGGGSTYYADSVKGRFTISRDNAKNTVYLQMNSLKPEDTAVYYCAADIVSSPSSYVPPGDYWGQGSQVTVSS")
"low polyreactivity"
>>> result("QVQLVESGGGLVQAGGSLRLSCAASGIILDPNAMGWYRQAPGKEREMVAGITRSGVSTYYADSVKGRFTISRDNAKNTVYLQMNSLKPEDTAVYYCANDRIYGSKGEDDDYWGQGTQVSVSS")
"low polyreactivity"
>>> result("QVQLVETGGGLVQAGGSLRLCCAASGRIFWYNAMGWYRPAPGKERELVAAISSIDGTTYYADSVKGRFTISRDNAKNTVYLQMNSLKPEDTAVYYCAAEDPADQYDYWGQGTQVTVSS")
"high polyreactivity"
>>> result("QVQLVESGGGLVQAGGSLRLSCAASGSTFWPYAMGWSRQAPGKERELVARINSGGNTNYADSVKGRFTISRDNAKNTVYLQMNSLKPEDTAVYYCAVRSLYEPRVYYRWVVVDGNYLGQGTQVTVSS")
"low polyreactivity"
>>> result("QVQLVESGGGLVQAGGSLRLSCAASGLTFSSYTMGWYRQAHGKERELVAAINWNGGDTYYADSVKGRFTISRDNAKNTVYLQMHSLKPEDTAVYYCNADYPYFYRFTAEYDYCGQGTQVTVSS")
"low polyreactivity"
>>> result("QDQLVESGGGLVQAGGRLRLSCAASGRTFYWNAMGWYRQAPGKERELVAAINGGGSTYYADSVKGRFTISRDNAMNTVYLQINSLKQEDSAVYYCNAESYEFHRAWGDYDYWGHGTQVTVSS")
"low polyreactivity"
>>> result("QDNLVESGGGLVQAGGSLRLICAASGSTNRSNAMGWYRQAPGKERELVAANSRTGGRTYYADSVKGRFTISRDNAKNTVYLQMKCLNQEDTAVYYCARADKRLEYSENYYWGQGTQVTVSS")
"high polyreactivity"
>>> result("QVQLVESGGGLVHAGGSLRLSCAASGITFSRNTMGWYRQAPGKERELVAAITLRGGGRTYYADSVKGRFTISRDNAKNTVYLQMISLKPEDTAVYYCAARYLVTFGHQQRYFYWGQGTHVTVSS")
"high polyreactivity"
>>> result("QVQLVESGGGLVQAGGSLRLSCAASGSNSDPYAMGWYRQAPGKEREFVAAITFSVSSTYYADSVKGRFTISRDNAKNTVYLQMNSLKPEDTAVYYCAARRPLYPERDYWGQGTQVTVSS")
"high polyreactivity"
>>> result("QVQLVESGGGLVQAGGSLRLSCASSGFTFYYYAMGWYRQAPGKEMELVAAIDTSDGSTYYADSVKGRFTISRDNAKNTVYLQMNSLKPEDTAVYYCAAEVDWVPFLLDYWGQGTQVTVSS")
"low polyreactivity"
